# targetUnderTest: recombinant mitochondrial TK-2 (Homo sapiens)
# Sequence (O00142 34-265): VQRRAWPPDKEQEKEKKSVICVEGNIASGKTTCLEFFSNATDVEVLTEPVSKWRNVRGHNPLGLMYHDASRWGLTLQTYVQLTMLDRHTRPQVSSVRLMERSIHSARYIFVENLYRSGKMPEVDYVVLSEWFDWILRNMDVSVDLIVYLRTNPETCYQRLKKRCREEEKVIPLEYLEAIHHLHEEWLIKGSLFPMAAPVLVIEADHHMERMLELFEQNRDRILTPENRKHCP
# experimentalProtocol: Phosphorylation of [CH3-3H]dThd by recombinant TK-2
# studyConditions: TK-2, competitive vs dThd; read-out: Ki FLT
# Procedure: […] Formation of tritiated dTMP was measured by spotting aliquots of the reaction mixture on Whatman DE-81 filter paper disks, as described earlier ([Balzarini et al, 2003]).
assayReadout: Ki

[
  {
    "molecule": "Cc1cn([C@H]2C[C@H]([18F])[C@@H](CO)O2)c(=O)[nH]c1=O [FLT, 3′-deoxy-3′-[^18F]fluorothymidine]",
    "assayReadout": "Ki",
    "recordedValue": "4.2 µM"
  }
]

---

# targetUnderTest: recombinant mitochondrial TK-2 (Homo sapiens, UniProt O00142)
# experimentalProtocol: Phosphorylation of [CH3-3H]dThd by recombinant TK-2
# studyConditions: TK-2, 1 μM [CH3-3H]dThd as substrate
assayReadout: IC50

[
  {
    "molecule": "Nc1ccn([C@H]2C[C@H](O)[C@@H](COP(=O)(O)OP(=O)(O)OP(=O)(O)O)O2)c(=O)n1 [dCTP]",
    "recordedValue": "~50 µM"
  }
]

---

# targetUnderTest: recombinant cytosolic TK-1 (Homo sapiens, UniProt P04183)
# Sequence (P04183 whole entry): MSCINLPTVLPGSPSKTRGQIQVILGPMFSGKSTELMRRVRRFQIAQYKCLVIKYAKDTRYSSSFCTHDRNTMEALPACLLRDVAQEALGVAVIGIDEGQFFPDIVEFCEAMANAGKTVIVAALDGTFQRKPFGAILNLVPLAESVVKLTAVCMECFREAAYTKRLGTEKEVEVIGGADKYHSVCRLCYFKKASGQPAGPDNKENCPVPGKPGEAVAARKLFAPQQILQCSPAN
# experimentalProtocol: Phosphorylation of [CH3-3H]dThd by recombinant TK-1
# studyConditions: TK-1, competitive vs dThd; read-out: Ki FLT
assayReadout: Ki (nM)

[
  {
    "compound": "Cc1cn([C@H]2C[C@H]([18F])[C@@H](CO)O2)c(=O)[nH]c1=O [FLT, 3′-deoxy-3′-[^18F]fluorothymidine]",
    "recordedValue": 1900
  }
]
